# target.system: Torsin-1A-interacting protein 1 (Homo sapiens)
# experiment.notes: LAP1 binders from COS7 cell lysate, primary screen, small-molecule microarray, 635/667 nm fluorescence (AID 1116)
# setup.conditions: COS7-hLAP1 lysate binding, 635 nm fluorescence, higher = more signal
Some compounds, each annotated with its measured composite z-score.
Just the number, please, no unit after it.

Fill in: composite z-score of CC(C)C[C@@H]1NC(=O)[C@@H]2C[C@H](C(=O)NCCCCN(C)C)[C@H](c3cccc(OCCO)c3)N2C1=O is ___
-0.249

Others:
Which composite z-score is reported for this compound? CO[C@H]1O[C@H](CO)[C@@H](OC(=O)Nc2ccc3c(c2)OCO3)[C@H](OC(=O)c2cc3ccccc3[nH]2)[C@H]1OC(=O)c1cc2ccccc2[nH]1
0.0724

Proceed to COCC1=C2[C@@H](CCc3ccccc3)OB(O)C[C@@H]2[C@@H]2C(=O)C=CC(=O)[C@@H]2C1
0.236

What do we get for COCCOC(=O)N1C(=O)[C@@]2(c3cc(C#Cc4ccc(OC)cc4)ccc31)[C@H](c1ccccc1OCCO)N1[C@H](c3ccccc3)[C@H](c3ccccc3)OC(=O)[C@H]1[C@@H]2C(=O)N1CCCCCCC1 ?
5.26

Proceed to C=CCC(OC(C)=O)[C@@H]1[C@@H](N(Cc2cc3ccccc3o2)C(=O)c2ccc(C)cc2)c2cc(OCCCO)ccc2N1C(=O)Cc1ccc(OC)cc1 (stereo partly specified)
-0.0471

Please answer likewise for CCOC(=O)c1ccc(NC(=O)O[C@H]2[C@H](OC(=O)Nc3ccc4c(c3)OCO4)[C@H](OC(=O)Nc3ccc4c(c3)OCO4)[C@@H](OC)O[C@@H]2CO)cc1
0.645

###

molecules and their reported composite z-score
# experiment.notes: binders of probe aHhip on microarray, primary screen, stem cell growth factor project, biochemical, small-molecule microarray, fluorescence 635/667 (AID 1087);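 also: score merges spot fluorescence at 667nm with spot signal to noise ratio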
# setup.conditions: higher = more signal
Field format: numeric only.

Known results for molecules:
Given the molecule O=C1C2C=CC(C(O)c3ccc(Br)cc3)N(Nc3ccccc3F)C2C(=O)N1c1ccccc1 (configuration not stated) , what is its reported composite z-score?
-0.0346

Also need [N-]=[N+]=Nc1ccccc1[C@H]1OC(c2ccc(OCCCO)cc2)=N[C@@]1(Cc1ccccc1)C(=O)N1CCCCC1 , thanks.
-0.0994

Next up: COC(=O)[C@@]1(Cc2ccc(F)cc2)[C@H]2c3cc(C(=O)N4CCCC4)n(CCN4CNCC4=O)c3C[C@H]2CN1C(=O)c1ccccc1
0.178

More entries:
Requested read-out: composite z-score. Entry: CC(C)(C)OC(=O)CC[C@@]1(C(=O)NCc2ccccc2)N=C(c2ccc(OCCCO)cc2)O[C@@H]1c1ccccc1N=[N+]=[N-]
0.0115

###

# experiment.notes: MM1S cell viability effects, profiling panel, calcein-AM fluorescence, 48 h, basal (AID 1165);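 also: viability of MM1S multiple myeloma cells under basal unstimulated conditions; test concentration not given here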
# setup.conditions: higher = more signal
measured.endpoint: z-score
Could you respond with only the numeric value?

The examples below pair each entry with its known result.
Which z-score is listed for COc1ccc([Si](C)(C)[C@@H]2[C@@H](CC(=O)N3Cc4ccccc4C[C@H]3CO)O[C@]3(C(=O)N(Cc4cccc(N5C(=O)c6cccc7cccc5c67)c4)c4ccccc43)[C@H]2C)cc1 ?
-0.428

Also, O=C1O[C@@H](c2ccccc2)[C@@H](c2ccccc2)N2[C@@H](c3ccccc3OCCO)[C@]3(C(=O)Nc4ccc(C#CCCO)cc43)[C@@H](C(=O)N3CCCCCCC3)[C@H]12 please.
-1.68

Turning now to a further molecule:
Fill in the blank: the reported z-score of [N-]=[N+]=NCc1ccccc1[C@H]1OC(c2ccc(OCCCO)cc2)=N[C@@]1(CCS(=O)(=O)c1ccccc1)C(=O)NCC(O)CO (stereo partly drawn) is ____.
-0.381
